# METHOD DESCRIPTION: Cytotoxicity against bovine MDBK cells assessed as decrease in cell viability after 72 hrs by MTT assay
# Assay type: cell-based, Bos taurus
# CONDITION PARAMETERS: cattle
Each entry falls into one class according to its CC50 at 72 h; the ranges are bucket A (below 10 µM), bucket B (10 µM to below 30 µM), bucket C (30 µM or more)

Below are worked cases with known answers.
NS(=O)(=O)c1ccc(N2N=C(c3ccccc3)CC2c2ccc(Cl)cc2)cc1 (configuration not stated) :: bucket B
Cc1ccccc1C1CC(c2ccc(Oc3ccccc3)cc2)=NN1c1ccc(S(N)(=O)=O)cc1 (configuration not stated) :: bucket B
Cc1ccccc1C1CC(c2ccccc2)=NN1c1ccc(S(N)(=O)=O)cc1 (configuration not stated) :: bucket B
Cc1ccc(C2CC(c3ccccc3)=NN2c2ccc(S(N)(=O)=O)cc2)cc1 (configuration not stated) :: bucket C
NS(=O)(=O)c1ccc(N2N=C(c3ccc(Oc4ccccc4)cc3)CC2c2ccc(F)cc2)cc1 (configuration not stated) :: bucket A

Which of the defined bands does the recorded CC50 at 72 h of NS(=O)(=O)c1ccc(N2N=C(c3ccc(OCc4ccccc4)cc3)CC2c2ccccc2Cl)cc1 (configuration not stated) sit within? bucket C

Which of the defined bands does the recorded CC50 at 72 h of NS(=O)(=O)c1ccc(N2N=C(c3ccc(OCc4ccccc4)cc3)CC2c2cccc(Cl)c2)cc1 (configuration not stated) sit within? bucket C

Which of the defined bands does the recorded CC50 at 72 h of Cc1cccc(C2CC(c3ccc(Oc4ccccc4)cc3)=NN2c2ccc(S(N)(=O)=O)cc2)c1 (configuration not stated) sit within? bucket A

Which of the defined bands does the recorded CC50 at 72 h of NS(=O)(=O)c1ccc(N2N=C(c3ccc(Oc4ccccc4)cc3)CC2c2ccccc2Cl)cc1 (configuration not stated) sit within? bucket A

From: ChEMBL document CHEMBL4130485
